B1: Azoarcus group I ribozyme (parent)
chain: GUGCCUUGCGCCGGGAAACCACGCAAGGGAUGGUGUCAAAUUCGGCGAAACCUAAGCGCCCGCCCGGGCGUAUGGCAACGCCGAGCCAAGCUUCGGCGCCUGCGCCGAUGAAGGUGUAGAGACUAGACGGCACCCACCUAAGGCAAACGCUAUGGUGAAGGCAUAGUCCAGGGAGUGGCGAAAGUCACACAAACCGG

Variants of: B1
Assay: reverse-splicing fitness (ratio to wild type); higher = more active; in vitro selection; Mg2+ level not given
List of reverse-splicing fitness values.

variant code | reverse-splicing fitness
C82U A111C A120U C150U C169A U176G | 0.00291
C82U A111G A120G A145C C150A | 0.00658
A120C A145C C150G C169A | 0.0111
C82U A111U A145U C150U U176G | 0.0202
C82A A120U A145C C150U U176G | 0.00464
A111U A120G A145G C150A C169G | 0.0343
A111C A120U C169G U176C | 0.00999
C82U A111G A120C A145U C150G C169G U176A | 0.0063
A120U C169G U176G | 0.00332
C82A A120U C150A C169U U176A | 0.00391
C82G A120G C150G U176C | 0.0105
C150G C169U U176G | 0.00596
C82G A111U A120U A145C C150G C169A U176C | 0.00248
C82G A111U A120G A145C C150A C169A U176C | 0.00752
C82A A111G C150G C169G U176A | 0.00836
C82A A111G A120G A145U C150U | 0.0134
A111U A120G A145U C169U U176C | 0.0495
C82G A111U A120C A145U C150G C169A U176C | 0.0107
C82G A111G A120U A145U C169U U176G | 0.00199
C82G A120G C150A C169A U176C | 0.0244
A111C A120G C150G C169U | 0.0177
C82A A111U A120G A145U C169U | 0.00974
